TEST_METHOD_NOTES: chemical genetic growth profiling, strain panel (AID 1159580);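 further: tested at 20 µM; growth read once vehicle control cultures reached saturation at 30 °C; 1 = growth at the plate median or of vehicle wells; lower values mean less growth of the strain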
CONDITIONS: S. cerevisiae deletion strains, growth OD, locus YCL029C, strain bik1, active compounds read low
Screen size: about 5,500 compounds; about 2,000 (36%) were called active. Roughly 18% stayed inconclusive and do not appear here. The list shows a part of the results.
// values below are reported normalized growth
// return just the number, without any unit appended

| COMPOUND | MEAS_VALUE |
| --- | --- |
| CC1=NN(c2ccccc2)C(=O)C1 | 0.982 |

Value of measured normalized growth for the entry COc1c2ccoc2cc2oc(C)cc(=O)c12 : 0.98

normalized growth for O=c1[nH]cnc2c1ncn2C1O[C@H](CO)[C@@H](O)[C@H]1O (stereo not given in full) is 1.03

The measured normalized growth associated with NC[C@H]1O[C@H](O[C@H]2C(O[C@@H]3O[C@H](CO)[C@@H](O)[C@H]3O)[C@@H](O)[C@H](N)C[C@@H]2N)[C@H](N)[C@@H](O)[C@@H]1O (stereo not given in full) reads 0.987

Per the record, CC(=O)Oc1cc2c(c(C)c1OC(C)=O)CC1OC13C2(C)CCC1(C)C2CC(C)(C(=O)O)CCC2(C)CCC13C (stereo not given) has normalized growth of 1.03

Kindly note the recorded normalized growth for COc1cc(-c2oc3cc(O)ccc3c(=O)c2O)cc(OC)c1OC , which is 1.01

In plain terms, COc1c2occc2c(OC)c2c(=O)cc(C)oc12 has a documented normalized growth of 0.998

Form: compound = O=C(CCBr)N1CCN(C(=O)CCBr)CC1 ; normalized growth = 1

// normalized growth value for O=c1c(O)c(-c2ccc(O)c(O)c2)oc2cc(O)ccc12 : 0.988

Lab book: normalized growth of CN[C@@H]1[C@@H](O[C@H]2O[C@H](CO)[C@@H](N)[C@H](O)[C@H]2O)O[C@H]2C[C@@H](N)[C@H](O[C@H]3[C@H](O)[C@@H](O)[C@H](N)C[C@@H]3N)O[C@@H]2[C@@H]1O noted as 1.01
